The entries below come with measured pKd values attached.
TARGET_SYSTEM: T1, cyno TfR extracellular domain (analogous construct to human TfR ecd) (cynomolgus monkey, UniProt Q5RDH6 87-760 (Pongo abelii entry))
T1 construct: also called cynoTfR ecd
T1 chain: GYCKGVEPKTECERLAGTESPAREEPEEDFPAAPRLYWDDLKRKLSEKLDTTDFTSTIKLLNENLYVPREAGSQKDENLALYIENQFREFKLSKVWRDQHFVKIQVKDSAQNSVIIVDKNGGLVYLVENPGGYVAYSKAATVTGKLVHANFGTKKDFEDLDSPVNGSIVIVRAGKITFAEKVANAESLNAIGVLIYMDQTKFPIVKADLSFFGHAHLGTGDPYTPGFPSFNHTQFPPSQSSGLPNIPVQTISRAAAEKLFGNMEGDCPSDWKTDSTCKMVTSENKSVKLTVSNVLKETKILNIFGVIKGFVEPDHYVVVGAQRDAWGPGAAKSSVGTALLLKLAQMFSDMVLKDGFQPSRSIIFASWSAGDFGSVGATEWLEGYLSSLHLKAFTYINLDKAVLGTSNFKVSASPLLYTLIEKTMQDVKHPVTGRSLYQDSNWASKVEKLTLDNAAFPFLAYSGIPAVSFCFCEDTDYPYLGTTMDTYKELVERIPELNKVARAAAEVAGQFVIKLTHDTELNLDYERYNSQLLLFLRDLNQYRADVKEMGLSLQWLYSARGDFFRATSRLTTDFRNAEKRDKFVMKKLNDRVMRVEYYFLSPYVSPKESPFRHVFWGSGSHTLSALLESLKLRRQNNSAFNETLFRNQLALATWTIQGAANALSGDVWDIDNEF
ASSAY_TEXT: SPR, IgG
Please report pKd as the negative decimal logarithm of the molar concentration, giving only the number.

BINDER | pKd
10D11 (antibody, V domains shown, Mouse hybridoma antibody; also called clone 10D11) VH: QVQLQQSGPELVRPGVAVKISCKGSGYKFIDYGMHWVKQSHTKSLQWIGVISPYSGKTNYSQKFKGKATMTVDKSSSTAYMELARLTSEDSAIYYCARGLSGNFVMDFWGQGTSVTVSS VL: DIVLTQSPASLAVSLGQRATISCRASESVDSYGPSFMHWYQQKPGQPPKLLIYRASNLESGIPARFSGSGSRTDFTLTINPVEADDVATYYCQHSNEDPPTFGGGTRLEIK | 7.05

API: the following record is the query input.
Exercise: Given 7A4 (antibody, V domains shown, also called clone 7A4) VH: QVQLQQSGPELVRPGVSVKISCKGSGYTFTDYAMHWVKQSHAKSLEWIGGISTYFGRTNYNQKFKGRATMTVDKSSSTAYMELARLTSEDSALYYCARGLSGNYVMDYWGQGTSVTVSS VL: DIVLTQSPASLAVSLGQRATISCRASESVDDYGNSFMHWYQQKPGQPPKLLIYRASNLESGIPARFSGSGSRTDFTLTINPVEADDVATYYCQQSNEAPPTFGGGTKLEIR , respond with its pKd.
Solution: 9.20
